These entries and their values trace back to PubChem BioAssay (NCI).

- System: SR leukemia
- Assay Text: NCI tumour cell line growth inhibition, 48 h
Readout Type: TGI (µM)

> print(dat)
                                   compound  readout.type  comparison.sign  experimental.value
1  O=P(O)(O)OC1C(OP(=O)(O)O)C(OP(=O)(O)O)C(OP(=O)(O)O)C(OP(=O)(O)O)C1OP(=O)(O)O (stereo not given)           TGI                >                2000
2  COc1ccc(C(=O)CC2(O)C(=O)Nc3c(Cl)ccc(Cl)c32)cc1 (stereo not given)           TGI                =                56.1
3  CCCC1NC(C#N)(C#N)C(CCC)NC1(C#N)C#N (stereo not given)           TGI                =                1.49
4  COc1ccc(CN2CCc3c(Cl)nc(N)nc3C2=O)c(OC)c1           TGI                =                10.7
5           C=CCCc1cc(OC)ccc1CN(C)C(C)(C)CO           TGI                >                 100

###

- Test system: NCI-H522 lung
- Assay Text: NCI tumour cell line growth inhibition, 48 h; in the data active = GI50 below about 0.43 µM; inactive = the rest
Outcomes: active, inactive

> print(dat)
                           structure.smiles  assigned.category
1  CCN1CCC(C(=O)Nc2n[nH]c3nnc(-c4cccc(F)c4F)cc23)CC1           inactive
2  Cc1cc2c(-c3nc4ccccc4[nH]3)c(O)c(O)cc2c(O)c1-c1c(C)cc2c(-c3nc4ccccc4[nH]3)c(O)c(O)cc2c1O             active
3     C#Cc1cccc(NC(=O)Nc2ccccc2NC(=O)CCl)c1           inactive
4            CCCCc1ccc2nc(NC(=O)OC)[nH]c2c1             active
5  FC(F)(F)c1ccc2nc(-c3nc(-c4ccccc4)n4ccccc34)[nH]c2c1           inactive

###

Reported TGI values follow for various compounds
- System: MCF7 breast
- Assay Text: NCI tumour cell line growth inhibition, 48 h
Readout Type: TGI

> print(dat)
                                    compound  readout.type  experimental.value
 1                NNC(=O)CC(=O)Nc1ccc(Cl)cc1           TGI            > 100 µM
 2  COC(=O)c1c(OC(C)=O)ccc2c1c1c(OC(C)=O)c3ccccc3c(OC(C)=O)c1n2Cc1cc(OC)cc(OC)c1           TGI            > 100 µM
 3  COc1ccc(NC(=O)c2ccc(NC3=C(Cl)C(=O)N(Cc4ccccc4)C3=O)cc2)cc1           TGI            > 100 µM
 4  Cc1cc(NS(=O)(=O)c2ccc(NC(=O)c3ccc4nc5ccccc5c(Nc5ccc(S(=O)(=O)N=C(N)N)cc5)c4c3)cc2)no1           TGI             36.4 µM
 5      C1=C[C@@H]2c3ccc4cnccc4c3NC[C@@H]2C1           TGI            > 100 µM
 6  COC12C=C/C(=C(/C(=O)OCc3ccncn3)C(=O)CCCCCCCCC3(OC)C=C/C(=C(/C(=O)OCc4ccncn4)C(=O)CCCCCCCC1)O3)O2           TGI               11 µM
 7  CCCCC/C=C1/CC(CO)(COC(=O)CC(C(C)C)C(C)C)OC1=O (stereo not given)           TGI             31.8 µM
 8  COc1cc2c(cc1OC)C1CN3C(=O)CCC3C(O)C1c1cc(OC)c(OC)cc1-2 (stereo not given)           TGI            > 100 µM
 9      Cc1nc2c(cc1C(=O)NN)c(=O)n(C)c(=O)n2C           TGI            > 100 µM
10  O=C(Nc1ccccc1)c1cc2c(cc1Cl)Sc1nccn1S2(=O)=O           TGI             > 60 µM

###

- System: OVCAR-3 ovarian
- Assay Text: NCI tumour cell line growth inhibition, 48 h
Some compounds, each annotated with its measured TGI.
Readout Type: TGI (µM)

Compound	Comparison Sign	Experimental Value
N/C(=N\N=C\c1ccc2c(c1)OCO2)NO	=	59.1
O=C(CCc1cccc(O)c1)NCCc1cccc(O)c1	>	100
COc1c2occc2c(OC)c2c(=O)c(S(=O)(=O)NC(=O)Nc3ccc(Cl)cc3)coc12	>	10
O=C(c1ccccc1)c1nnn(Cc2cccc(Cl)c2)c1C(=O)c1ccccc1	>	100
COCCNC(=O)C1C(=O)N(CCOC)C(=O)/C1=N/N (configuration not stated)	>	100
Cc1ncc(C(=O)Nc2ccc(CN3CCN(C)CC3)c(C(F)(F)F)c2)cc1C#Cc1c(N)ncc2ccc(C#N)cc12	=	8.54
CCC12C=CCN3CC[C@]4(C(=C(C(=O)OC)[C@@H]1Nc1ncnc5c1ncn5C1OC(COC(C)=O)C(OC(C)=O)C1OC(C)=O)Nc1ccccc14)C32 (some centres not stated)	=	4.3

###

- Test system: DU-145 prostate
- Assay Text: NCI tumour cell line growth inhibition, 48 h
Listed here: items and their measured log10 TGI.
Readout Type: log10 TGI (log10 of the value in µM)

Molecule	Experimental Value
CC(C)OC(=O)c1ccc(NCC2=CC(=O)C=CC2=O)cc1Cl	1.63
CC(=O)O[C@@H]1C=CC(=O)C2(CC(=O)O[C@@H]2/C=C(\C)CCC=C(C)C)C1 (stereo not given in full)	0.38
COc1ccc(NC(=O)c2ccc(NC3=C(Cl)C(=O)N(Cc4ccccc4)C3=O)cc2)cc1	1.39
O=c1c2ccccc2oc2c1ccc1ncccc12	1.77
COc1c(O)c2ccccc2c2cc(O)ccc12	1.32
COc1cc(/C=C2\C[C@H]3[C@@H]4CC=C5C[C@@H](N6CCCC6)CC[C@]5(C)[C@H]4CC[C@]3(C)[C@H]2O)cc(OC)c1OC	1.51
FC(F)(F)c1ccc2nc(-c3nc(-c4ccccc4)n4ccccc34)[nH]c2c1	1.48
COc1ccc(CCNc2nc3ccccc3c3[nH]c4ccccc4c23)cc1OC	1.20

###

- Tested on: PC-3 prostate
- Assay Text: NCI tumour cell line growth inhibition, 48 h
Here, each record is paired with measured GI50 data.
Readout Type: GI50

> print(dat)
                           structure.smiles  experimental.value
1     C#Cc1cccc(NC(=O)Nc2ccccc2NC(=O)CCl)c1            21500 nM
2  CCc1cc(C(N)=O)ccc1-n1nc(C(C)C)c2c(-n3cnc(-c4cnn(C)c4)c3)ccnc21             3610 nM
3  CC/C(=C(\c1ccccc1)c1ccc(OCCN(C)C)cc1)c1ccccc1             2470 nM
4  CC/C=C/[C@@H]1C=C[C@@H]2CCC[C@H]2[C@@H]1CC[C@H](O)[C@H](C)N             2910 nM
5      COc1ccccc1/C=C1\COc2ccc(O)c(O)c2C1=O             1430 nM

###

Each entry below carries its recorded GI50.
- System: EKVX NSCLC
- Assay Text: NCI tumour cell line growth inhibition, 48 h
Readout Type: GI50

> print(dat)
                                    compound  experimental.value
 1  COc1ccc(CCNc2nc3ccccc3c3[nH]c4ccccc4c23)cc1OC             22.6 µM
 2         O=C(CCCCCCc1nc2ccc(Br)cc2[nH]1)NO             1.55 µM
 3  C=C1C(=O)OC(CCCCCCCC)C1C(=O)O (stereo not given)             16.1 µM
 4  CC(=O)O[C@@H]1C=CC(=O)C2(CC(=O)O[C@@H]2/C=C(\C)CCC=C(C)C)C1 (stereo not given in full)             3.28 µM
 5  Cc1ncc(C(=O)Nc2ccc(CN3CCN(C)CC3)c(C(F)(F)F)c2)cc1C#Cc1c(N)ncc2ccc(C#N)cc12             0.54 µM
 6  CCN(CC)CCCCCCCCNc1c2ccc(Cl)cc2nc2ccc(OC)cc12             2.11 µM
 7  Cc1c(CNc2ccc(Cl)c(C(=O)NC(CC(=O)O)C(=O)O)c2)ccc2nc(N)nc(N)c12 (stereo not given)              284 µM
 8                    COc1cc[c]([Hg][Cl])cc1             9.51 µM
 9  CC/C(=C(\c1ccccc1)c1ccc(OCCN(C)C)cc1)c1ccccc1             4.74 µM
10  COc1cc(-c2cc(-c3ccc(N(C)C)cc3)nc(N3CCC(O)CC3)c2C#N)cc(OC)c1OC            0.461 µM
11  COc1ccc(C(=O)c2cc3c(N)c(C(=O)Nc4cccc(Cl)c4)sc3nc2C)cc1             2.06 µM
12             CCc1nc(N)nc(N)c1-c1ccc(Cl)cc1              5.7 µM
13  CCOC(=O)c1cc2c(n1Cc1cccc(OC)c1)-c1oncc1CC2              9.1 µM
14  O=C(Nc1ccc(Cl)c(Cl)c1)Nc1ccc(Cl)c([N+](=O)[O-])c1             1.04 µM
15  Cc1cc2c(-c3nc4ccccc4[nH]3)c(O)c(O)cc2c(O)c1-c1c(C)cc2c(-c3nc4ccccc4[nH]3)c(O)c(O)cc2c1O           0.0315 µM
